TGI values for the compounds below.
Tested on: OVCAR-5 ovarian
Assay: NCI tumour cell line growth inhibition, 48 h

Field: example entries. Status: answers known.
> print(dat)
                                   compound  experimental.value
1  COc1cccc2c1C(=O)c1c(O)c3c(c(O)c1C2=O)C[C@@](O)(C(=O)CO)CC3OC1CC(O)C(O)C(C)O1 (stereo not given in full)             3.66 µM
2  C=CC(Br)(CBr)CCC(Br)C(C)(C)Cl (stereo not given)             14.5 µM
3                          COC(=O)C(CBr)CBr             31.2 µM
4  CN(C)c1ccc(-c2ccc(N(C)C)c3n[se]nc23)c2n[se]nc12            > 100 µM
5                    N#Cc1nc(-c2ccccn2)oc1N            > 100 µM
6  COC(=O)N/N=C(/CCC(=O)Nc1ccc(C)c(C)c1)CC(=O)C(C)(C)C            > 100 µM
7  COCCN1CCN(Cc2ccc(-c3n[nH]c4c3C(=O)c3c(NC(=O)NN5CCOCC5)cccc3-4)cc2)CC1            > 4.7 µM
8  CC(C)(C)c1cc(OCc2nnc3sc(=S)[nH]n23)c(Cl)cc1OCc1nnc2sc(=S)[nH]n12            > 100 µM

Tested system OVCAR-5 ovarian; TGI recorded for "CCC(=O)Nc1ccccc1C#C/C=C\C#Cc1ccccc1C(F)(F)F" was > 37 µM

Tested system OVCAR-5 ovarian; TGI recorded for "COc1cc([C@@]23OC[C@@H]4[C@@H](OC[C@@H]42)c2cc4c(cc23)OCO4)cc(OC)c1OC" was > 100 µM

====

Test system: SF-295 CNS
Experiment: NCI tumour cell line growth inhibition, 48 h
observable: log10(TGI) (log10 of the value in µM)
On a log10 scale: recorded TGI, unit µM.

compound	log10(TGI)
CC(C)(C)OC(=O)c1ccc(NCC2=CC(=O)C=CC2=O)cc1	1.70

Reported log10(TGI) for "CN1CCN(c2nc(NCCCNc3ccnc4cc(Cl)ccc34)c3ccccc3n2)CC1" was 0.69

Reported log10(TGI) for Cc1cnc2c(c1)C(=O)C1=C(OC(C)(C)CC1O)C2=O (stereo not given) was 1.42

Reported log10(TGI) for "CN1CCN(Cc2ccc(NC(=O)c3cncc(C#Cc4cncc5nccnc45)c3)cc2C(F)(F)F)CC1" was 1.16

Reported log10(TGI) for "CCCCc1n(Cc2ccc3ccccc3c2)cc[n+]1Cc1ccc2ccccc2c1" was 0.42

Reported log10(TGI) for CC(C)C(C/C=C1/CC(CO)(COC(=O)c2ccccc2)OC1=O)C(C)C (stereo not given) was 1.41

Reported log10(TGI) for C=C(C)C(O)C(O)C[C@@H](C)C1CC[C@]23C[C@]12CCC1[C@@]2(C)CCC(OC(C)=O)C(C)(C)C2CC(OC2OC(CO)C(O)C(O)C2O)[C@]13C (stereo not given in full) was 1.56

Reported log10(TGI) for C=CC(Br)(CBr)CCC(Br)C(C)(C)Cl (stereo not given) was 0.56

====

Tested on: SNB-19 CNS
Assay: NCI tumour cell line growth inhibition, 48 h; in the data active means GI50 below about 0.43 µM; inactive means the rest
Field 'call' accepts active, inactive

Answered examples (5):
> print(dat)
                                   compound  study.system  assigned.label
1  COc1cc(-c2n/c(=C\c3c(O)[nH]c4cc(Cl)ccc34)cc3c2=Nc2ccccc2-3)cc(OC)c1OC    SNB-19 CNS        inactive
2  C[CH2][Ge]([CH2]C)([CH2]C)[O]C(=O)CCC(=O)[O][Ge]([CH2]C)([CH2]C)[CH2]C    SNB-19 CNS        inactive
3                   CCCNC(=O)c1ccc(Cl)cc1Cl    SNB-19 CNS        inactive
4  CN1CCN(Cc2ccc(NC(=O)c3cncc(C#Cc4cncc5nccnc45)c3)cc2C(F)(F)F)CC1    SNB-19 CNS        inactive
5  Cc1cc2nc3cc(C)c(N)cc3[n+](-c3ccccc3)c2cc1N    SNB-19 CNS        inactive

Here's the next entry for you.
GET /call?item= "COCCN1CCN(Cc2ccc(-c3n[nH]c4c3C(=O)c3c(NC(=O)NN5CCOCC5)cccc3-4)cc2)CC1" returns the recorded outcome of this test.
active

====

TGI values for the molecules below.
Tested on: HOP-92 NSCLC
Assay: NCI tumour cell line growth inhibition, 48 h

Field: example entries. Status: answers known.
> print(dat)
                                   molecule  study.system  experimental.value
1  C=C(CC(=O)O)C(=O)O (tested in a mixture with another compound)  HOP-92 NSCLC          > 50 µg/mL
2  Cc1sc(C)c2c1C(=O)CC2N (stereo unspecified)  HOP-92 NSCLC             40.7 µM
3  O=C(O)CCc1c2ccc(=O)c(O)c-2oc2c(O)c(O)ccc12  HOP-92 NSCLC            > 100 µM
4        Cc1ccn2c(CCc3nnc4cc(C)ccn34)nnc2c1  HOP-92 NSCLC            > 100 µM
5  Cc1ccc(/C=C2\CCCC(CN(C)C)C2=O)cc1 (stereo unspecified)  HOP-92 NSCLC             3.75 µM

Reported TGI for "c1cncc(C2Nc3cccc4cccc(c34)N2)c1" was 61.2 µM

====

Tested on: OVCAR-3 ovarian
Test: NCI tumour cell line growth inhibition, 48 h; in the data active means GI50 below about 0.43 µM; inactive means the rest
Field 'call' accepts active, inactive

Answered examples (3):
> print(dat)
                                   compound     study.system  assigned.label
1  CCc1cc2ncc(CN3CCN(c4ccc(C(=O)NC)nc4)CC3)cc2[nH]c1=O  OVCAR-3 ovarian        inactive
2  COc1cc(-c2cc(/C=C/C(=O)c3ccc(Cl)c(Cl)c3)[nH]n2)cc(OC)c1OC  OVCAR-3 ovarian        inactive
3  Nc1nc(N)c2c(n1)NC(c1ccccc1)C1CCc3ccccc3C1=N2 (centres undefined)  OVCAR-3 ovarian        inactive

Here's the next entry for you.
GET /call?item= CN(C)CC(C(=O)Cc1ccccc1)c1ccccc1 (centres undefined) returns the recorded outcome of this test.
inactive

====

System: KM12 colon
Assay: NCI tumour cell line growth inhibition, 48 h
observable: TGI

> print(dat)
                                   compound  experimental.value
1  CCCCCCCCCCCCOc1ccc(/C=C/C2=[N+](CCCl)CCO2)cc1            > 100 µM

Reported TGI for CC1(S)CC2C(CC1Sc1ccccc1)C2(C)C (stereo not given) was > 100 µM

Reported TGI for "COc1ccc(/C(Cl)=C(\c2ccc(OCCN(C)C)cc2)c2ccc(OC(=O)C(C)(C)C)cc2)cc1" was 26.4 µM

Reported TGI for "Cc1ccc(NC(=S)SCCC(=O)O)cc1" was > 100 µM

Reported TGI for "O=c1c2cc(Cl)ccc2[nH]c2cc(O)cc(O)c12" was > 10 µM

Reported TGI for "COc1cc2ncnc(Nc3ccc4c(cnn4Cc4ccccc4)c3)c2cc1OC" was > 25 µM

====

GI50 values for the compounds below.
Tested on: MDA-MB-231 breast
Assay: NCI tumour cell line growth inhibition, 48 h

Field: example entries. Status: answers known.
> print(dat)
                                   compound  observable  experimental.value
1                   CCCNC(=O)c1ccc(Cl)cc1Cl        GI50            > 100 µM
2  COc1cc2ncnc(Nc3ccc4c(cnn4Cc4ccccc4)c3)c2cc1OC        GI50             7.13 µM
3  C=C(CC(=O)O)C(=O)O (tested in a mixture with another compound)        GI50          > 50 µg/mL
4  NCCOc1ccccc1/C=C1\c2ccccc2-c2ccc([N+](=O)[O-])cc21        GI50             1.58 µM
5  COc1cc(-c2n/c(=C\c3c(O)[nH]c4cc(Cl)ccc34)cc3c2=Nc2ccccc2-3)cc(OC)c1OC        GI50             3.17 µM

Kindly consider the entry below.
Reported GI50 for "Cc1cc(C(=O)O)c(C)n1-c1cccc(C(=O)O)c1" was > 100 µM

====

TGI values for the compounds below.
Test system: OVCAR-4 ovarian
Experiment: NCI tumour cell line growth inhibition, 48 h
Answer format: numeric, µM implied, no suffix.

compound	observable	measurement.unit	experimental.value
NC(=O)/C=c1/c2ccccc2n2nc3ccccc3c12	TGI	µM	39.4
C/C(=N\N=C(\[Se])N(C)C)c1ccccn1	TGI	µM	13.9
C=C(C)C(O)C(O)C[C@@H](C)C1CC[C@]23C[C@]12CCC1[C@@]2(C)CCC(OC(C)=O)C(C)(C)C2CC(OC2OC(CO)C(O)C(O)C2O)[C@]13C (stereo not given in full)	TGI	µM	41.8

Kindly consider the entry below.
Reported TGI for "CN1C=Cc2nccc3cc4c(c1c23)OCO4" was 47.5

Entry source: PubChem BioAssay (NCI)
